Assay: Pharmacokinetic assay in mice
Format: in vivo
Details: male, mouse; ICR mice, PO 10 mg/kg, plasma, original compound detected
Overview of recorded half-life for various compounds
Output spec: scalar in h, unitless text.

Solved entries:
Cc1c(/C=C(\F)c2nc3c(n2C)CCN(C(C)C)C3)cccc1-c1cccc(NC(=O)c2nc3c(n2C)CCN(CCC24CCC(C(=O)O)(CC2)C4)C3)c1C: 5.2
COc1cc(/C(F)=C/c2cccc(-c3cccc(NC(=O)c4nc5c(n4C)CCN(CCC46CCC(C(=O)O)(CC4)C6)C5)c3Cl)c2Cl)ncc1CN1CCCC1: 5
COc1cc(/C(F)=C/c2cccc(-c3cccc(NC(=O)c4nc5c(n4C)CCN(CCC46CCC(C(=O)O)(CC4)C6)C5)c3Cl)c2Cl)ncc1CN1CC[C@@](C)(C(=O)O)C1: 1.8
COc1cc(/C(F)=C/c2cccc(-c3cccc(NC(=O)c4nc5c(n4C)CCN(CCC46CCC(C(=O)O)(CC4)C6)C5)c3Cl)c2Cl)ncc1CN1CC[C@@H](C(=O)O)C1: 1.1

We now examine a further compound.
Look at this compound and give its reported half-life. COc1cc(/C(F)=C/c2cccc(-c3cccc(NC(=O)c4nc5c(n4C)CCN(CCC46CCC(C(=O)O)(CC4)C6)C5)c3Cl)c2Cl)ncc1CN1CCC(C)(O)C1 (centres unmarked)
4

---

Target: interaction between PD-1 and PD-L1 (Homo sapiens (Human))
Sequence (Q9NZQ7 19-238): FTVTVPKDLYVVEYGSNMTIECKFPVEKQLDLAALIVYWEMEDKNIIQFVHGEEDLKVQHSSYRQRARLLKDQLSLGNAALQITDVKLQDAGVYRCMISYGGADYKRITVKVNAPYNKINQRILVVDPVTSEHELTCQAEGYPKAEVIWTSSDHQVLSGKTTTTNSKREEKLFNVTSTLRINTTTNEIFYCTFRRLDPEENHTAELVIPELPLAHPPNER
Assay: PD1-PDL1 HTRF binding activity test (Cisbio PD-1/PD-L1 binding assay kit)
Experimental: I. PD1-PDL1 HTRF Binding Activity Test The effect of compounds of the examples of the present invention on the interaction between PD-1 and PD-L1 was determined by the PD-1/PD-L1 binding assay kit from Cisbio (#64ICP01PEG or 64ICP01PEH). […] After incubated for 2 hrs at room temperature or overnight at 4° C., plates were read on Envision of Pelkin Elmer; and readings at 665 nm and 620 nm were recorded, and the ratio of the two readings was taken as a reading for each well; • 4. […]
parameter: IC50
Note to self: number, then unit, no commentary.

Look at this compound and give its reported IC50. COc1cc(/C(F)=C/c2cccc(-c3cccc(NC(=O)c4nc5c(n4C)CCN(CCC46CCC(C(=O)O)(CC4)C6)C5)c3Cl)c2Cl)ncc1CN1CC[C@@H](C(=O)O)C1
0.186 nM

Look at this compound and give its reported IC50. COc1cc(/C(F)=C/c2cccc(-c3cccc(NC(=O)c4nc5c(n4C)CCN(C[C@H]4CC[C@H](C(=O)O)CC4)C5)c3C)c2C)ncc1CNC[C@@H]1CCC(=O)N1
0.331 nM

Look at this compound and give its reported IC50. COc1cc(/C(F)=C/c2cccc(-c3cccc(NC(=O)c4nc5c(n4C)CCN(CCC46CCC(C(=O)O)(CC4)C6)C5)c3Cl)c2Cl)ncc1CN1CC[C@H](O)C1
0.299 nM

---

Biological target: interaction between PD-1 and PD-L1 (Homo sapiens (Human))
Experiment: PD1-PDL1 HTRF binding activity test (Cisbio PD-1/PD-L1 binding assay kit)
Overview of recorded pIC50 for various molecules
Scale: negative log10 of molar concentration, which is what pIC50 denotes.

CC(C)N1CCc2c(nc(/C(F)=C/c3cccc(-c4cccc(NC(=O)c5nc6c(n5C)CCN(CCC57CCC(C(=O)O)(CC5)C7)C6)c4Cl)c3Cl)n2C)C1 [Example 8]: 9.29
COc1cc(/C(F)=C/c2cccc(-c3cccc(NC(=O)c4nc5c(n4C)CCN(CCC46CCC(C(=O)O)(CC4)C6)C5)c3Cl)c2Cl)ncc1CN1CCCC1 [Example 58]: 9.72
COc1cc(/C(F)=C/c2cccc(-c3cccc(NC(=O)c4nc5c(n4C)CCN(CCC46CCC(C(=O)O)(CC4)C6)C5)c3Cl)c2Cl)ncc1CN1CC[C@@](C)(C(=O)O)C1 [Example 75]: 9.73
C[C@@H](O)CN1CCc2c(nc(/C(F)=C/c3cccc(-c4cccc(NC(=O)c5nc6c(n5C)CCN(CCC57CCC(C(=O)O)(CC5)C7)C6)c4Cl)c3Cl)n2C)C1 [Example 7]: 9.38
COc1cc(/C(F)=C/c2cccc(-c3cccc(NC(=O)c4nc5c(n4C)CCN(CCC46CCC(C(=O)O)(CC4)C6)C5)c3Cl)c2Cl)ncc1CNC(C)C [Example 41]: 9.60

Observed pIC50 on interaction between PD-1 and PD-L1 (Homo sapiens (Human)) for COc1cc(/C(F)=C/c2cccc(-c3cccc(NC(=O)c4nc5c(n4C)CCN(CCC46CCC(C(=O)O)(CC4)C6)C5)c3Cl)c2Cl)ncc1CN1CCC(C)(O)C1 (stereo not shown) [Example 49] , please.
9.63

Observed pIC50 on interaction between PD-1 and PD-L1 (Homo sapiens (Human)) for COc1cc(/C(F)=C/c2cccc(-c3cccc(NC(=O)c4nc5c(n4C)CCN(CCC46CCC(C(=O)O)(CC4)C6)C5)c3Cl)c2Cl)ncc1CNC(C)(C)C [Example 50] , please.
9.14
